Taken from ChEMBL document CHEMBL4354864.

experimental system: Cholecystokinin receptor type A (Homo sapiens, UniProt P32238)
Sequence (P32238 whole entry): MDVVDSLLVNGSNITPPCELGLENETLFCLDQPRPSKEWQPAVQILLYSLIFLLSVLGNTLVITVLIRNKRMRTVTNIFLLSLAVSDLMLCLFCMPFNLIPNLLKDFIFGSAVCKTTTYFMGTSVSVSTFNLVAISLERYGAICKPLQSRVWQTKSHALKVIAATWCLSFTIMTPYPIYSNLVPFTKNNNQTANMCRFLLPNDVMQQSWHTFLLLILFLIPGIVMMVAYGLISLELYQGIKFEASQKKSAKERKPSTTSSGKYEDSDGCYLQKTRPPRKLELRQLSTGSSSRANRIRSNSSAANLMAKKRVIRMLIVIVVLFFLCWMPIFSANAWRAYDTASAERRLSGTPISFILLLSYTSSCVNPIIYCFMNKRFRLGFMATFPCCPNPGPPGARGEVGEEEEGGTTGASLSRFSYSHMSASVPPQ
assay explanation: Displacement of [125I]CCK-8s from human CCKA incubated for 60 mins by scintillation counting method
measured metric: IC50 (µM)
State just the number; it will be interpreted in µM.

q: Record CCOP(=O)(OCC)C1(c2ccccc2)N=CC2C(=O)N(c3ccc(F)c(Cl)c3)C(=O)C21 (racemic) : what is its IC50 with Cholecystokinin receptor type A (Homo sapiens, UniProt P32238)?
a: 5.94

----------
assay explanation: Displacement of [3H]2-BFI from I2IR in human brain frontal cortex assessed as binding affinity at low affinity site incubated for 45 mins by liquid scintillation spectrometry
Type: tissue-based
measured metric: pKi
Write the value as a bare number.

Please review the entries below; each comes with its answer.
>>> df
                                   compound  result_number
0                   C(=C\c1ccccc1)/C1=NCCN1           6.48
1                   c1ccc2oc(C3=NCCN3)cc2c1           7.94
2  CCOP(=O)(OCC)C1(c2ccccc2)N=CC2C(=O)N(CC)C(=O)C21 (racemic)           5.86
3                c1ccc2oc(-c3ncc[nH]3)cc2c1           5.25

q: Consider the compound shown here: `c1ccc(-c2ncc3cc(-n4ccnc4)ccc3n2)cc1` What is its recorded pKi?
a: 5.45

q: Consider the compound shown here: `Cn1c(C2=NCCN2)cc2ccccc21` What is its recorded pKi?
a: 3.82

q: Consider the compound shown here: CCOP(=O)(OCC)C1(c2ccccc2)N=CC2C(=O)N(C3Cc4ccccc4C3)C(=O)C21 (racemic) What is its recorded pKi?
a: 3.2

q: Consider the compound shown here: CCOP(=O)(OCC)C1(c2ccccc2)N=CC2C(=O)N(c3ccccc3Cl)C(=O)C21 (racemic) What is its recorded pKi?
a: 4.74

----------
Readings of pKi for the listed molecules
assay explanation: Displacement of [3H]2-BFI from I2IR in human brain frontal cortex assessed as binding affinity at high affinity site incubated for 45 mins by liquid scintillation spectrometry
Format: tissue-based
Write the value as a bare number.

Please review the entries below; each comes with its answer.
>>> print(df.to_string())
                                   molecule  result_number
0  CCOP(=O)(OCC)C1(c2ccccc2)N=CC2C(=O)N(CC)C(=O)C21 (racemic)           8.95
1  c1ccc2c(c1)OCC(C1=NCCN1)O2 (stereo unspecified)           7.74
2                  Cn1c(C2=NCCN2)cc2ccccc21           6.89
3  CCOP(=O)(OCC)C1(c2ccccc2)N=CC2C(=O)N(c3ccccc3Cl)C(=O)C21 (racemic)           7.53
4                   C(=C\c1ccccc1)/C1=NCCN1           8.48

Please turn your attention to the following entry.
q: Consider the molecule shown here: `c1ccc2oc(-c3ncc[nH]3)cc2c1` What is its recorded pKi?
a: 9.03

----------
assay explanation: Displacement of [3H]2-BFI from I2IR in Sprague-Dawley rat brain cortex assessed as binding affinity at low binding site incubated for 45 mins by liquid scintillation spectrometry
measured metric: Ki (nM)
State just the number; it will be interpreted in nM.

q: Consider the molecule shown here: `Cn1c(C2=NCCN2)cc2ccccc21` What is its recorded Ki?
a: 239

----------
assay explanation: Displacement of [3H]2-BFI from I2IR in Wistar rat brain cortex incubated for 90 mins by radioligand binding assay
measured metric: pIC50
Reminder that pIC50 means the negative base-10 logarithm of the concentration expressed in mol/L.

q: Consider the molecule shown here: `c1ccc(-c2ncc3cc(-n4ccnc4)ccc3n2)cc1` What is its recorded pIC50?
a: 6.22

----------
assay explanation: Cytotoxicity against human MRC5 cells assessed as reduction in cell viability incubated for 3 to 5 days by colorimetric analysis
Type: cell-based
measured metric: CC50

q: Consider the compound shown here: CCOP(=O)(OCC)C1(c2ccccc2)N=CC2C(=O)N(c3ccc(F)c(Cl)c3)C(=O)C21 (racemic) What is its recorded CC50?
a: > 100 µM

----------
assay explanation: Displacement of [3H]2-BFI from I2IR in human brain frontal cortex incubated for 45 mins by liquid scintillation spectrometry
Type: tissue-based
measured metric: pKi
Write the value as a bare number.

Please review the entries below; each comes with its answer.
In [3]: df
Out[3]:
                                   compound  result_number
0  CCOP(=O)(OCC)C1(c2ccc(OC)cc2)N=CC2C(=O)N(c3ccccc3)C(=O)C21 (racemic)           3.39
1  CCOP(=O)(OCC)C1(c2ccccc2)N=CC2C(=O)N(c3cc(Cl)cc(Cl)c3)C(=O)C21 (racemic)           5.81
2  CCOP(=O)(OCC)C1(c2ccccc2)N=CC2C(=O)N(c3cccc([N+](=O)[O-])c3)C(=O)C21 (racemic)           6.81
3  CCOP(=O)(OCC)C1(c2ccccc2)N=CC2C(=O)N(c3ccccc3Cl)C(=O)C21 (racemic)           5.09
4  CCOP(=O)(OCC)C1(c2ccccc2)N=CC2C(=O)N(CC)C(=O)C21 (racemic)           8.37

q: Consider the compound shown here: CCOP(=O)(OCC)C1(c2ccccc2)N=CC2C(=O)N(CCc3ccccc3)C(=O)C21 (racemic) What is its recorded pKi?
a: 6.35

q: Consider the compound shown here: CCOP(=O)(OCC)C1(c2ccccc2)N=CC2C(=O)N(C)C(=O)C21 (racemic) What is its recorded pKi?
a: 7.97

q: Consider the compound shown here: CCOP(=O)(OCC)C1(c2ccccc2)N=CC2C(=O)N(c3ccc(Oc4ccccc4)cc3)C(=O)C21 (racemic) What is its recorded pKi?
a: 6.96

q: Consider the compound shown here: CCOP(=O)(OCC)C1N=CC2C(=O)N(C3CCCCC3)C(=O)C21 (racemic) What is its recorded pKi?
a: 5.74

q: Consider the compound shown here: CCOP(=O)(OCC)C1(c2ccccc2)N=CC2C(=O)N(C(C)(C)C)C(=O)C21 (racemic) What is its recorded pKi?
a: 7.35

----------
assay explanation: Solubility of compound in 99% PBS buffer incubated for 2 hrs by nephelometry
Type: physicochemical
measured metric: solubility kinetic at 2 h (µM)
State just the number; it will be interpreted in µM.

q: Consider the molecule shown here: CCOP(=O)(OCC)C1(c2ccccc2)N=CC2C(=O)N(c3ccc(F)c(Cl)c3)C(=O)C21 (racemic) What is its recorded solubility kinetic at 2 h?
a: 92

----------
Species: Homo sapiens
assay explanation: Displacement of [3H]2-BFI from I2IR in human brain frontal cortex assessed as binding affinity at high affinity site incubated for 45 mins by liquid scintillation spectrometry relative to control
Type: tissue-based
Set-up: concentration or dose not given beside the values
Activity strictly less than 30% = 1. Otherwise -1.

Below, 7 compounds whose answers are already recorded.
                                   compound  answer_label
0                   C(=C\c1ccccc1)/C1=NCCN1            -1
1  CCOP(=O)(OCC)C1(c2ccccc2)N=CC2C(=O)N(C3Cc4ccccc4C3)C(=O)C21 (racemic)             1
2                c1ccc2oc(-c3ncc[nH]3)cc2c1            -1
3  CCOP(=O)(OCC)C1(c2ccccc2)N=CC2C(=O)N(c3ccccc3Cl)C(=O)C21 (racemic)             1
4       c1ccc(-c2ncc3cc(-n4ccnc4)ccc3n2)cc1             1
5                  Cn1c(C2=NCCN2)cc2ccccc21            -1
6  CCOP(=O)(OCC)C1(c2ccccc2)N=CC2C(=O)N(CC)C(=O)C21 (racemic)            -1

q: Is 30% strictly greater than the compound's reported Activity? compound: `c1ccc2oc(C3=NCCN3)cc2c1`
a: 1

----------
experimental system: Nischarin (Homo sapiens)
Sequence (Q9Y2I1 whole entry): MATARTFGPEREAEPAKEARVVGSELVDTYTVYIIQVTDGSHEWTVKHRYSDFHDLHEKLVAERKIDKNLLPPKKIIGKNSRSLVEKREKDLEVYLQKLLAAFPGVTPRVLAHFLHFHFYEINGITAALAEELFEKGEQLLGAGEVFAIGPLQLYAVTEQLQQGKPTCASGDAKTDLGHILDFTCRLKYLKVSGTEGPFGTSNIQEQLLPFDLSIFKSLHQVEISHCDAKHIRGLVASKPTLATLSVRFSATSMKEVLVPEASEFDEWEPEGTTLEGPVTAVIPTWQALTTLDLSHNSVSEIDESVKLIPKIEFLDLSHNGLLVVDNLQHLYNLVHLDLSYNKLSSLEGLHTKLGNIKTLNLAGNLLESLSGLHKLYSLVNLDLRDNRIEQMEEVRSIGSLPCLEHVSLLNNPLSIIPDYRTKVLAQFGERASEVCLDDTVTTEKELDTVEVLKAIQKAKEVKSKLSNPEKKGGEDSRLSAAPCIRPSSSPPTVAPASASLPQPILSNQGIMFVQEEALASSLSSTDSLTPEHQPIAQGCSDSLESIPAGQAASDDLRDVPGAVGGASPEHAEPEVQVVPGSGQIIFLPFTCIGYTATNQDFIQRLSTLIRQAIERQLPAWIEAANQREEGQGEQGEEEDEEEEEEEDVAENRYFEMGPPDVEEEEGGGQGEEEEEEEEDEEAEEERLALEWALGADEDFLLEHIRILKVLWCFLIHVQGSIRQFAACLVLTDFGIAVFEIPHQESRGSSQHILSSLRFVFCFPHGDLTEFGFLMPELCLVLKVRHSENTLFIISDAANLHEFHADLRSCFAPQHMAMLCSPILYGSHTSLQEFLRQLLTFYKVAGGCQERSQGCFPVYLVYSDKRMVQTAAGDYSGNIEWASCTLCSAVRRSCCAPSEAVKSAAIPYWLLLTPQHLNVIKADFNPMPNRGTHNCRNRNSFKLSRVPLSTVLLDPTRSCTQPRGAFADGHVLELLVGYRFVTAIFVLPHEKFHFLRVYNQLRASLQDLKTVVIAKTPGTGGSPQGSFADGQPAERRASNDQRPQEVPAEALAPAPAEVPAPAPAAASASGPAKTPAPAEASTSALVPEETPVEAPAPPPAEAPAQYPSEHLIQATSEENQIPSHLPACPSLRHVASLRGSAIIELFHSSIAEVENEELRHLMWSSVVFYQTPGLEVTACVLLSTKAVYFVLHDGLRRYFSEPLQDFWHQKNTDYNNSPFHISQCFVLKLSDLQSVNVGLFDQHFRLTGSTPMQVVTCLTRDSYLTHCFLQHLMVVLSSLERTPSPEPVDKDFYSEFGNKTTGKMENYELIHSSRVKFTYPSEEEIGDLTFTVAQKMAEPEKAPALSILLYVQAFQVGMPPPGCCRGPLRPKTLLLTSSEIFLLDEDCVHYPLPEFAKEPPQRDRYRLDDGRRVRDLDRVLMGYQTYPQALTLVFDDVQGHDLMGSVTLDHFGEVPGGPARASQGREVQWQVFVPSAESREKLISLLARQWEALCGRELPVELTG
assay explanation: Displacement of [3H]clonidine from I1IR in human brain frontal cortex in presence of adrenaline incubated for 45 mins by liquid scintillation spectrometry
Readings of IC50 for the listed molecules

Please review the entries below; each comes with its answer.
In [3]: df
Out[3]:
                                   molecule     result
0  CCOP(=O)(OCC)C1N=CC2C(=O)N(C)C(=O)C21 (racemic)    7.41 µM
1  CCOP(=O)(OCC)C1(c2ccccc2)N=CC2C(=O)N(c3ccc(-c4ccccc4)cc3)C(=O)C21 (racemic)  0.0646 µM
2  CCOP(=O)(OCC)C1(c2ccccc2)N=CC2C(=O)N(C)C(=O)C21 (racemic)   0.646 µM
3  CCOP(=O)(OCC)C1N=CC2C(=O)N(C3CCCCC3)C(=O)C21 (racemic)    7.24 µM

Please turn your attention to the following entry.
q: Consider the molecule shown here: CCOP(=O)(OCC)C1N=CC2C(=O)N(c3ccc(F)c(Cl)c3)C(=O)C21 (racemic) What is its recorded IC50?
a: > 1000 µM
